Biological target: human MCH receptor expressed from the open reading frame cDNA SEQ. ID. NO. 1 in 293-AEQ17 cells (human, UniProt Q99705 1-353)
Sequence (Q99705 whole entry): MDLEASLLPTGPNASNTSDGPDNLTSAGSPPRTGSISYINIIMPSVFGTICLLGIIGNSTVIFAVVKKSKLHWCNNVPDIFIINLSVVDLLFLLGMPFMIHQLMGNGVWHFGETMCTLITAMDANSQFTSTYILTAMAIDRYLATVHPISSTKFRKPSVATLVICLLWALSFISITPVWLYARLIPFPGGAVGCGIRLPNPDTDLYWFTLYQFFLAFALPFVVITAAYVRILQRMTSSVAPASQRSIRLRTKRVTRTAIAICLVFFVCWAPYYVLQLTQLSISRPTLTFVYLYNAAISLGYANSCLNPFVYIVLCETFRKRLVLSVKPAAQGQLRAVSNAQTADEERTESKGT
Test: cell-based or functional assay
Bridges are numbered along the chain shown (N, C = ends).
Attribute: Activation %

Here is how some binders turned out for Activation %.
binder="Ac-RCMLLRVYRPC-NH2 (disulfide 2-11 (inferred), ID; NO; 7 peptide; MCH position numbering) [MCH analog SEQ. ID. NO. 48 (position 10: Leu)]" endpoint_value=106%
binder="Ac-RCMLGRVYRPC-NH2 (disulfide 2-11 (inferred), Corresponds to MCH positions 6-16; also called ID; NO; 7 MCH analog) [truncated MCH analog SEQ. ID. NO. 7: Ac-Arg-Cys-Met-Leu-Gly-Arg-Val-Tyr-Arg-Pro-Cys-amide]" endpoint_value=99%
binder="RCMLXRVYRPC (D-Leu at position 10; N-terminal acetyl, C-terminal amide, Cys-Cys disulfide as in SEQ. ID. NO. 7) [MCH analog SEQ. ID. NO. 55 (position 10: D-Leu)]" endpoint_value=23%
binder="Ac-RCMLARVYRPC-NH2 (disulfide 2-11 (inferred), ID; NO; 7 peptide; MCH position numbering) [MCH analog SEQ. ID. NO. 47 (position 10: Ala)]" endpoint_value=104%
binder="RCMLXRVYRPC (D-Pro at position 10; N-terminal acetyl, C-terminal amide, Cys-Cys disulfide as in SEQ. ID. NO. 7, ID; NO; 7 peptide; MCH position numbering) [MCH analog SEQ. ID. NO. 57 (position 10: D-Pro)]" endpoint_value=90%

Request: Which Activation % value belongs to RCMLXRVYRPC (norleucine at position 10; N-terminal acetyl, C-terminal amide, Cys-Cys disulfide as in SEQ. ID. NO. 7) [MCH analog SEQ. ID. NO. 49 (position 10: Nle)] ?
Result: 106%

Request: Proceed to RCMLXRVYRPC (γ-Abu (gamma-aminobutyric acid) at position 10; N-terminal acetyl, C-terminal amide, Cys-Cys disulfide as in SEQ. ID. NO. 7) [MCH analog SEQ. ID. NO. 61 (position 10: γ-Abu)]
Result: 101%
